# assay.procedure: NCI Yeast Anticancer Drug Screen. Data for the rad50 strain (AID 155)
# test.context: S. cerevisiae rad50 strain growth inhibition; at 50.0 µM (retest, dose inferred, filed as 5.0)
The panel holds about 79,000 compounds, 15% with a hit somewhere; the sample as a whole holds those more often. The source made the active and inactive calls. No stated cut-off is given here; in the data, active means growth inhibition above about 70%; inactive means the rest.
Response enum: active, inactive

CCC(=O)C(CCN1CCC(N2C(=O)C(CCC#N)c3ccccc32)CC1)(c1ccccc1)c1ccccc1 (stereo not given) ... inactive

Would you mind telling me which call this test gave `C1=C[N-]c2c3c(ccc2=C1)=CC=C[N-]3.C1=C[N-]c2c3c(ccc2=C1)=CC=C[N-]3.F[P-](F)(F)(F)(F)F.[Cu+2]` ?
active

Would you mind telling me which call this test gave O=C1C(CCl)(CCl)CCC12CNC(Cl)(Cl)C2 (stereo not given) ?
inactive

Would you mind telling me which call this test gave CCOP(=O)(OCC)C(O)c1ccccc1Cl (stereo not given) ?
inactive

Would you mind telling me which call this test gave CCC[CH2][Sn]1([CH2]CCC)[O]CC(CN2CCCCC2)[O]1 (stereo not given) ?
active

Would you mind telling me which call this test gave OC1CC([CH2][Hg][I])OC([CH2][Hg][I])C1 (stereo not given) ?
active

Would you mind telling me which call this test gave CCCCCN1C(=O)C2C(C1=O)C1(Cl)C(Cl)=C(Cl)C2(Cl)C1(Cl)Cl (stereo not given) ?
active

Would you mind telling me which call this test gave `Clc1cc[c]([Tl][c]2ccc(Cl)cc2)cc1` ?
active

Would you mind telling me which call this test gave CC(=O)OC1CCC2C3CCC4C(F)C(=O)C(F)(F)CC4(C)C3CCC12C (stereo not given) ?
active

Would you mind telling me which call this test gave `CC1=CC(=O)c2c(O)cccc2C1=O` ?
active

###

# assay.procedure: NCI Yeast Anticancer Drug Screen. Data for the rad50 strain (AID 155)
# test.context: S. cerevisiae rad50 strain growth inhibition; at 5.0 µM (retest, dose inferred, filed as 0.5)
The panel holds about 79,000 compounds, 15% with a hit somewhere; the sample as a whole holds those more often. The source made the active and inactive calls. Rule as the data show it: active = growth inhibition above about 70%; inactive = the rest.
Response enum: t for active, f for inactive

O=C1C(C(Nc2ccccc2)c2ccccc2)=C([O-])c2ccccc21.O=C1C(C(Nc2ccccc2)c2ccccc2)=C([O-])c2ccccc21.[Co+2] (stereo not drawn) ... f
CN(C)c1ccc(N=Nc2cccc(C(=O)[O-])c2)cc1.CN(C)c1ccc(N=Nc2cccc(C(=O)[O-])c2)cc1.NC1CCCCC1N.O=[N+]([O-])O.[Pt+4] ... f
C[Se]C([Se]C)=C([Se]C)[Se]C ... f

Would you mind telling me which call this test gave CC[S+](C)c1ccc(-c2c3nc(c(-c4ccc([S+](C)CC)cc4)c4ccc([nH]4)c(-c4ccc([S+](C)CC)cc4)c4nc(c(-c5ccc([S+](C)CC)cc5)c5ccc2[nH]5)C=C4)C=C3)cc1 (stereo not drawn) ?
t

Would you mind telling me which call this test gave `[C-]#[O+].[Cl][Sn]([Cl])[Cl].[Cl][Sn]([Cl])[Cl].[Pt].c1ccncc1` ?
f

Would you mind telling me which call this test gave `Cc1cc[n+](C2=C(Nc3c(C)cccc3C)C(=O)c3ccccc3C2=O)cc1` ?
f

Would you mind telling me which call this test gave `CCC[CH2][Sn]1([CH2]CCC)[O]C(=O)CN=Cc2ccccc2[O]1` ?
t

Would you mind telling me which call this test gave `O=C(Oc1ccc(S(=O)(=O)F)cc1F)c1ccccc1Cl` ?
f
